Molecular target: T1, human tissue factor pathway inhibitor (TFPI) (human, UniProt P10646 29-304, limits assumed)
T1 construct: bought; also called hTFPI; human TFPI
T1 sequence (looked up): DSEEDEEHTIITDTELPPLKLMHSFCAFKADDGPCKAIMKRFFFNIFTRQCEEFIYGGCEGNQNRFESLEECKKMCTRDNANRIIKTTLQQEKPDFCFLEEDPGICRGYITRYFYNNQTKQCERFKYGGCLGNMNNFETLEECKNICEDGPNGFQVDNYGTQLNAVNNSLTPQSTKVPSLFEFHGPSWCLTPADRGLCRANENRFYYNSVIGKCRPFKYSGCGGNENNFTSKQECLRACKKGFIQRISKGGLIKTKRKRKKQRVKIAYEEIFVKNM
Experiment: SPR, TFPI immobilized
measuredMetric: log10 koff (log10 of the value in s⁻¹)

{"columns": ["binder", "observedValue"],
 "data": [
  ["2A8 LC_D91L (Fab, V domains shown, also called 2A8-16) VH: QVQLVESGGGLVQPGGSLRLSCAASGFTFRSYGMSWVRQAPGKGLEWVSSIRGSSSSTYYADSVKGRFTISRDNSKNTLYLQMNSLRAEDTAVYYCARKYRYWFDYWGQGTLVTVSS VL: DIELTQPPSVSVAPGQTARISCSGDNLRNYYAHWYQQKPGQAPVVVIYYDNNRPSGIPERFSGSNSGNTATLTISGTQAEDEADYYCQSWLDGVPVFGGGTKLTVLG", -2.36],
  ["4B7 wild-type Fab (Fab, V domains shown, Fab with HA (or c-myc) and 6xHis tag at the C-terminus of the heavy chain; also called 4B7wt; parental 4B7) VH: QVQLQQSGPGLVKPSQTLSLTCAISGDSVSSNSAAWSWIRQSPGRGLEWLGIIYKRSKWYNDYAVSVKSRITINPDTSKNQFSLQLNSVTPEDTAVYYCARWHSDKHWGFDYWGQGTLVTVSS VL: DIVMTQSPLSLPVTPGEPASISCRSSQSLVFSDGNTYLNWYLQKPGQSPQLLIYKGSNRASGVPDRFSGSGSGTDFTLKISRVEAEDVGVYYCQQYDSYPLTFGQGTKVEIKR", -2.08],
  ["4B7 HC_D62R (Fab, V domains shown, also called 4B7-D62R) VH: QVQLQQSGPGLVKPSQTLSLTCAISGDSVSSNSAAWSWIRQSPGRGLEWLGIIYKRSKWYNRYAVSVKSRITINPDTSKNQFSLQLNSVTPEDTAVYYCARWHSDKHWGFDYWGQGTLVTVSS VL: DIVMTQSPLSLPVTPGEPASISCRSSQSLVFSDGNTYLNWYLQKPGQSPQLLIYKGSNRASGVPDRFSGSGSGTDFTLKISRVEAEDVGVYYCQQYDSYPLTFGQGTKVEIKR", -3.78],
  ["2A8 HC_S31V (Fab, V domains shown, also called 2A8-3) VH: QVQLVESGGGLVQPGGSLRLSCAASGFTFRVYGMSWVRQAPGKGLEWVSSIRGSSSSTYYADSVKGRFTISRDNSKNTLYLQMNSLRAEDTAVYYCARKYRYWFDYWGQGTLVTVSS VL: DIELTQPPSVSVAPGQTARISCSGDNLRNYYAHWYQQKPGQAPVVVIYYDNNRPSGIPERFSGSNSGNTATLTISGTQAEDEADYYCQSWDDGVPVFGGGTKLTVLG", -2.84],
  ["2A8 HC_S31P (Fab, V domains shown, also called 2A8-2) VH: QVQLVESGGGLVQPGGSLRLSCAASGFTFRPYGMSWVRQAPGKGLEWVSSIRGSSSSTYYADSVKGRFTISRDNSKNTLYLQMNSLRAEDTAVYYCARKYRYWFDYWGQGTLVTVSS VL: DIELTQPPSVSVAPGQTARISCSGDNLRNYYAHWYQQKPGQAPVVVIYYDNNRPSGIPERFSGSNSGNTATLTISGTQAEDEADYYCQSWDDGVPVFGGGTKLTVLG", -2.48],
  ["2A8 HC_K99L (Fab, V domains shown, also called 2A8-9) VH: QVQLVESGGGLVQPGGSLRLSCAASGFTFRSYGMSWVRQAPGKGLEWVSSIRGSSSSTYYADSVKGRFTISRDNSKNTLYLQMNSLRAEDTAVYYCARLYRYWFDYWGQGTLVTVSS VL: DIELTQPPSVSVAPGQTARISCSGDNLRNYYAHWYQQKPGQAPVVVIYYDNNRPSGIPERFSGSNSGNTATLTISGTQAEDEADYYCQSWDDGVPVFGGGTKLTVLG", -3.10],
  ["2A8 HC_S35D (Fab, V domains shown, also called 2A8-4) VH: QVQLVESGGGLVQPGGSLRLSCAASGFTFRSYGMDWVRQAPGKGLEWVSSIRGSSSSTYYADSVKGRFTISRDNSKNTLYLQMNSLRAEDTAVYYCARKYRYWFDYWGQGTLVTVSS VL: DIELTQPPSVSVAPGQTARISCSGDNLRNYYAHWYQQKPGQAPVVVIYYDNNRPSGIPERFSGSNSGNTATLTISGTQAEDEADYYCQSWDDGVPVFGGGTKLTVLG", -2.42]
]}
